B1: glmS ribozyme (parent)
chain: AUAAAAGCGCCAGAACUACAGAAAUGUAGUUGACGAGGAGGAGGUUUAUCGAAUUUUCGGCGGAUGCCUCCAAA

Variants of: B1
Assay: self-cleavage kobs at 10000 uM GlcN6P; higher = faster cleavage; RNA array
Settings: with glucosamine-6-phosphate
Variants at the floor of the assay were thinned out.
MEASURED PARAMETER: self-cleavage kobs at 10000 uM GlcN6P (s⁻¹)
Return type: number; implicit unit s⁻¹.

Examples with answers:
AUAAAAGCGCCAGAACUACAGAAAUGUAGUUGACGAGGAGGAGGCUUAUCGAUUUUUCGGCGGAUGCCUCCAAA : 0.00199
AUAAAAGCGCCAGAACUACAGAAAUGUAGUUGACGAGGAGGAGGUUUAUCGAAUCUUCGGCGGAUGCCUUCAAA : 0.00111
AUAAAAGCGCCAGAACUACAGAAAUGUAGUUGACGAGGAGGAGGUUUAUCGAAUUUUAGGCGGAGGCCUCCAAA : 4.32e-05

Exam item: For the variant `AUAAAAGCGCCAGAACUACAGAAAUGUAUUUUACGAGGAGGAGGUUUAUCGAAUUUUCGGCGGAUGCCUCCAAA` , give its reported self-cleavage kobs at 10000 uM GlcN6P.
Marked response: 0.000702

Exam item: Identify self-cleavage kobs at 10000 uM GlcN6P associated with the variant `AUAAAAGCGCCAGAGUUACAGAAAUGUAGUUGACGAGGUGGAGGUUUAUCGAAUUUUCGGCGGAUGCCUCCAAA`
Marked response: 0.00651

Exam item: Output measured self-cleavage kobs at 10000 uM GlcN6P for this item: `AUAAAAGCGCCAGAACUACAGAAAUGUAGUUGACGAGGAGGAGCUUUAUCGAAUUUUCGGCGGAUGUCUCCAAA`
Marked response: 0.00168
